# study.system: Cytochrome P450 2D6 (Homo sapiens, UniProt P10635)
# Sequence (P10635 whole entry): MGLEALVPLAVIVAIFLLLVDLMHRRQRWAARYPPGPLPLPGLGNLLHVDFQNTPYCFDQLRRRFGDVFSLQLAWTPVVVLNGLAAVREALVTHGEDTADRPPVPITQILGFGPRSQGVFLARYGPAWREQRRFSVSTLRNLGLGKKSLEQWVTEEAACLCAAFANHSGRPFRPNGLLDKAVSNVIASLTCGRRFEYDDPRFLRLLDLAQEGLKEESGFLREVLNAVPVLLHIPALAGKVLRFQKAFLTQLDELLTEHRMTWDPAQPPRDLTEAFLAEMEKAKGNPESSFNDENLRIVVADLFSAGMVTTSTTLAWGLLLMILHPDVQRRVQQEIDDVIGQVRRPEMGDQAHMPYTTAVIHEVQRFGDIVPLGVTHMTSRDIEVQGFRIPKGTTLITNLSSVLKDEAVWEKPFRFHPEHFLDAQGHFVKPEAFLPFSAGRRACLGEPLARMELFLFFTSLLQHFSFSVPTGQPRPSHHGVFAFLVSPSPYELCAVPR
assay.readout: IC50

Q: Quick check: IC50 of NC(=O)C1(c2ccccc2)CC2CCC(C1)N2C(c1ccccc1Cl)c1ccccc1Cl (stereo unspecified) ?
A: > 30 µM

###

# study.system: Nociceptin receptor (Homo sapiens, UniProt P41146)
# Sequence (P41146 whole entry): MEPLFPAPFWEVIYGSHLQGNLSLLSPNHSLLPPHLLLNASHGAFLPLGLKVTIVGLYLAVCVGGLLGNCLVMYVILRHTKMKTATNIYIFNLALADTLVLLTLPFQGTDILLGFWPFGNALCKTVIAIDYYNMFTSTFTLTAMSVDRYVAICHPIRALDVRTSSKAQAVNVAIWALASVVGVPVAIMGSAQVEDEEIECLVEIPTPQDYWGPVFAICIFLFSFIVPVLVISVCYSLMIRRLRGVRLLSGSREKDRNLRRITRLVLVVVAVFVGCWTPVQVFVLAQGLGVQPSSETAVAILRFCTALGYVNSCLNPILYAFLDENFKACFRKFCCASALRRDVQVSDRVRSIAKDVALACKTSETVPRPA
Each record here notes measured pKi.
Please note pKi is a logarithmic value: minus log10 of concentration in mol/L. Answer with that number alone.

Q: Record CCNC(=O)C1(c2ccccc2)CC2CCC(C1)N2C(c1ccccc1Cl)c1ccccc1Cl (configuration not stated) : what is its pKi with Nociceptin receptor (Homo sapiens, UniProt P41146)?
A: 8.15

Q: Record Cc1ccc(C(c2ccccc2Cl)N2C3CCC2CC(O)(CCCO)C3)c(Cl)c1 (configuration not stated) : what is its pKi with Nociceptin receptor (Homo sapiens, UniProt P41146)?
A: 8.13

Q: Record O/N=C/C1(c2ccccc2)CC2CCC(C1)N2C(c1ccccc1Cl)c1ccccc1Cl (configuration not stated) : what is its pKi with Nociceptin receptor (Homo sapiens, UniProt P41146)?
A: 7.70

Q: Record OC1(c2cccnn2)CC2CCC(C1)N2C(c1ccccc1Cl)c1ccccc1Cl (stereo in doubt; 12c) : what is its pKi with Nociceptin receptor (Homo sapiens, UniProt P41146)?
A: 5.42

Q: Record CC(C)NC(=O)C1(c2ccccc2)CC2CCC(C1)N2C(c1ccccc1Cl)c1ccccc1Cl (configuration not stated) : what is its pKi with Nociceptin receptor (Homo sapiens, UniProt P41146)?
A: 8.00

Q: Record COCCNC(=O)C1(c2ccccc2)CC2CCC(C1)N2C(c1ccccc1Cl)c1ccccc1Cl (configuration not stated) : what is its pKi with Nociceptin receptor (Homo sapiens, UniProt P41146)?
A: 8.09

Further cases:
Q: Record COc1ccc(CC2(O)CC3CCC(C2)N3C(c2ccccc2Cl)c2ccc(C)cc2Cl)nc1 (configuration not stated) : what is its pKi with Nociceptin receptor (Homo sapiens, UniProt P41146)?
A: 7.89

Q: Record COC1(c2ccccc2)CC2CCC(C1)N2C(c1ccccc1Cl)c1ccccc1Cl (configuration not stated) : what is its pKi with Nociceptin receptor (Homo sapiens, UniProt P41146)?
A: 8.10

Q: Record NC(=O)C1(c2ccc(OC(F)(F)F)cc2)CC2CCC(C1)N2C(c1ccccc1Cl)c1ccccc1Cl (configuration not stated) : what is its pKi with Nociceptin receptor (Homo sapiens, UniProt P41146)?
A: 6.55

Q: Record Cc1ccc(C(c2ccccc2Cl)N2C3CCC2CC(O)(c2ccncn2)C3)c(Cl)c1 (configuration not stated) : what is its pKi with Nociceptin receptor (Homo sapiens, UniProt P41146)?
A: 8.28

Q: Record OC1(c2cccnn2)CC2CCC(C1)N2C(c1ccccc1Cl)c1ccccc1Cl (stereo in doubt; 11c) : what is its pKi with Nociceptin receptor (Homo sapiens, UniProt P41146)?
A: 8.00

Q: Record OC1(c2ccccc2)CC2CCC(C1)N2C(c1ccccc1Cl)c1ccccc1Cl (configuration not stated) : what is its pKi with Nociceptin receptor (Homo sapiens, UniProt P41146)?
A: 8.47

Q: Record OC1(c2cccnc2)CC2CCC(C1)N2C(c1ccccc1Cl)c1ccccc1Cl (configuration not stated) : what is its pKi with Nociceptin receptor (Homo sapiens, UniProt P41146)?
A: 8.52

Q: Record O=C(NC1(c2ccccc2)CC2CCC(C1)N2C(c1ccccc1Cl)c1ccccc1Cl)C1CC1 (configuration not stated) : what is its pKi with Nociceptin receptor (Homo sapiens, UniProt P41146)?
A: 7.96

Q: Record N#CC1(c2ccccc2)CC2CCC(C1)N2C(c1ccccc1Cl)c1ccccc1Cl (configuration not stated) : what is its pKi with Nociceptin receptor (Homo sapiens, UniProt P41146)?
A: 7.00

###

# study.system: Cytochrome P450 3A4 (Homo sapiens, UniProt P08684)
# Sequence (P08684 whole entry): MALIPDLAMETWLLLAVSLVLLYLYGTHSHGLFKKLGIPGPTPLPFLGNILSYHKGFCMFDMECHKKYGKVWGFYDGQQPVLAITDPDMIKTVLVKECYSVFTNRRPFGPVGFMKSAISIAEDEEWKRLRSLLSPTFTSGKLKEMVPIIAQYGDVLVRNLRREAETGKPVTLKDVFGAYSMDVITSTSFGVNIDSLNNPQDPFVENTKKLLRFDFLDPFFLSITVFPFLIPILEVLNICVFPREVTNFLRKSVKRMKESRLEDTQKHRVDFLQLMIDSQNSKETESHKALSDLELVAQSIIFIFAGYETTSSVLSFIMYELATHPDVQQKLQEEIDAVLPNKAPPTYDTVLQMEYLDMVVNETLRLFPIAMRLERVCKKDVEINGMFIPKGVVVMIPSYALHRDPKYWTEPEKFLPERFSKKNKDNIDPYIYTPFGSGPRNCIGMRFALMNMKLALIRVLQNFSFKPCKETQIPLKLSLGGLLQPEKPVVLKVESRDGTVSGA
assay.readout: IC50

Q: Quick check: IC50 of NC(=O)C1(c2ccccc2)CC2CCC(C1)N2C(c1ccccc1Cl)c1ccccc1Cl (stereo unspecified) ?
A: > 30 µM

###

Each record here notes measured CL/F.
# protocol.text: Clearance in rat at 3 mg/kg, po
# Assay type: ADME, organism-based
# Parameters: dose 3 mg/kg, route oral
# experimental.parameters: in vivo
Give the value in mL/min/kg but do not write mL/min/kg after it.

Q: Quick check: CL/F of NC(=O)C1(c2ccc(F)cc2)CC2CCC(C1)N2C(c1ccccc1Cl)c1ccccc1Cl (configuration not stated) ?
A: 33

Turning now to a further record.
Q: Quick check: CL/F of NC(=O)C1(c2ccccc2)CC2CCC(C1)N2C(c1ccccc1Cl)c1ccccc1Cl (configuration not stated) ?
A: 73

###

# study.system: Nociceptin receptor (Homo sapiens)
pKi: −log10 of the molar value.
Please mark t if the recorded pKi is equal to or greater than 8, and f if it falls below.

Solved cases (2 shown):
Q: Threshold query (pKi >= 8) on Cc1ccc(C(c2ccccc2Cl)N2C3CCC2CC(O)(C2=NCCCN2)C3)c(Cl)c1 (centres undefined)
A: t

Q: Threshold query (pKi >= 8) on NC1(c2ccccc2)CC2CCC(C1)N2C(c1ccccc1Cl)c1ccccc1Cl (centres undefined)
A: t

Further cases:
Q: Threshold query (pKi >= 8) on NC(=O)c1ccc(C2(C(N)=O)CC3CCC(C2)N3C(c2ccccc2Cl)c2ccccc2Cl)cc1 (centres undefined)
A: f

Q: Threshold query (pKi >= 8) on C[C@@H]1CN(C(c2ccccc2)c2ccccc2)CC[C@@]1(O)c1ccccc1
A: f

Q: Threshold query (pKi >= 8) on O=C(O)C1(c2ccccc2)CC2CCC(C1)N2C(c1ccccc1Cl)c1ccccc1Cl (centres undefined)
A: t

Q: Threshold query (pKi >= 8) on CNC(=O)NC1(c2ccccc2)CC2CCC(C1)N2C(c1ccccc1Cl)c1ccccc1Cl (centres undefined)
A: t

###

# study.system: UniProt:P41146
# protocol.text: Agonist activity at human NOP assessed as stimulation of GDP-induced [35S]GTPgammaS binding
Hi! Could you tag entries with EC50 below 60 nM as 1.0, and those at or above as 0.0? Much appreciated.

Q: Just wondering, is EC50 of COC1(c2ccccc2)CC2CCC(C1)N2C(c1ccccc1Cl)c1ccccc1Cl (stereo not drawn) below 60 nM?
A: 1.0

Q: Just wondering, is EC50 of Cc1ccc(C(c2ccccc2Cl)N2C3CCC2CC(O)(C2CCCC2)C3)c(Cl)c1 (stereo not drawn) below 60 nM?
A: 1.0

Q: Just wondering, is EC50 of Cc1ccc(C(c2ccccc2Cl)N2C3CCC2CC(O)(C2=NCCCN2)C3)c(Cl)c1 (stereo not drawn) below 60 nM?
A: 0.0

Further cases:
Q: Just wondering, is EC50 of OCC1(c2ccccc2)CC2CCC(C1)N2C(c1ccccc1Cl)c1ccccc1Cl (stereo not drawn) below 60 nM?
A: 0.0

Q: Just wondering, is EC50 of Cc1ccc(C(c2ccccc2Cl)N2C3CCC2CC(O)(c2cccc(F)c2)C3)c(Cl)c1 (stereo not drawn) below 60 nM?
A: 1.0

Q: Just wondering, is EC50 of COC(=O)NC1(c2ccccc2)CC2CCC(C1)N2C(c1ccccc1Cl)c1ccccc1Cl (stereo not drawn) below 60 nM?
A: 1.0

Q: Just wondering, is EC50 of NC1(c2ccccc2)CC2CCC(C1)N2C(c1ccccc1Cl)c1ccccc1Cl (stereo not drawn) below 60 nM?
A: 0.0

Q: Just wondering, is EC50 of Cc1ccc(C(c2ccccc2Cl)N2C3CCC2CC(O)(C2CCNC2=O)C3)c(Cl)c1 (stereo not drawn) below 60 nM?
A: 1.0

Q: Just wondering, is EC50 of COc1ccc(CC2(O)CC3CCC(C2)N3C(c2ccccc2Cl)c2ccc(C)cc2Cl)nc1 (stereo not drawn) below 60 nM?
A: 0.0

Q: Just wondering, is EC50 of O=C(NC1(c2ccccc2)CC2CCC(C1)N2C(c1ccccc1Cl)c1ccccc1Cl)C1CC1 (stereo not drawn) below 60 nM?
A: 1.0

Q: Just wondering, is EC50 of NC(=O)C1(c2ccc(F)cc2)CC2CCC(C1)N2C(c1ccccc1Cl)c1ccccc1Cl (stereo not drawn) below 60 nM?
A: 1.0

Q: Just wondering, is EC50 of Cc1ccc(C(c2ccccc2Cl)N2C3CCC2CC(O)(c2ccncn2)C3)c(Cl)c1 (stereo not drawn) below 60 nM?
A: 1.0

Q: Just wondering, is EC50 of O/N=C/C1(c2ccccc2)CC2CCC(C1)N2C(c1ccccc1Cl)c1ccccc1Cl (stereo not drawn) below 60 nM?
A: 0.0

###

# study.system: Mu-type opioid receptor (Homo sapiens, UniProt P35372)
# Sequence (P35372 whole entry): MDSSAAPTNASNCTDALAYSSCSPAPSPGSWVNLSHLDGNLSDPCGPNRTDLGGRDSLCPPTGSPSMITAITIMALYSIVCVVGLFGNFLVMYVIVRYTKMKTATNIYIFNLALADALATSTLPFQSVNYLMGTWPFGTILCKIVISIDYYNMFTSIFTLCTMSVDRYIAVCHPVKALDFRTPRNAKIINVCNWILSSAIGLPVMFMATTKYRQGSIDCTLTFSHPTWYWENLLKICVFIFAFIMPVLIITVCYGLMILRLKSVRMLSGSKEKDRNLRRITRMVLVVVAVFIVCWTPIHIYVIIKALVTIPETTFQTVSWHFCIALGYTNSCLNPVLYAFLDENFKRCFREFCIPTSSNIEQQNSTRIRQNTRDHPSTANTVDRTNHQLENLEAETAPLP
# protocol.text: Displacement of [3H]diprenorphine from human mu opioid receptor expressed in CHO cells
# Assay type: cell-based
Hi! Could you tag entries with Ki below 500 nM as true, and those at or above as false? Much appreciated.

Q: Just wondering, is Ki of CC(C)NC(=O)C1(c2ccccc2)CC2CCC(C1)N2C(c1ccccc1Cl)c1ccccc1Cl (centres undefined) below 500 nM?
A: true

Q: Just wondering, is Ki of Clc1ccccc1C(c1ccccc1Cl)N1C2CCC1CC(c1ccccc1)(c1nc[nH]n1)C2 (centres undefined) below 500 nM?
A: true

Okay, next one:
Q: Just wondering, is Ki of Cc1ccc(C(c2ccccc2Cl)N2C3CCC2CC(O)(c2cccc(F)c2)C3)c(Cl)c1 (centres undefined) below 500 nM?
A: true
